Biological target: T1, recombinant human soluble gpNMB (recombinant human gpNMB-FLAG-His) (human, UniProt Q14956 23-498)
T1 sequence: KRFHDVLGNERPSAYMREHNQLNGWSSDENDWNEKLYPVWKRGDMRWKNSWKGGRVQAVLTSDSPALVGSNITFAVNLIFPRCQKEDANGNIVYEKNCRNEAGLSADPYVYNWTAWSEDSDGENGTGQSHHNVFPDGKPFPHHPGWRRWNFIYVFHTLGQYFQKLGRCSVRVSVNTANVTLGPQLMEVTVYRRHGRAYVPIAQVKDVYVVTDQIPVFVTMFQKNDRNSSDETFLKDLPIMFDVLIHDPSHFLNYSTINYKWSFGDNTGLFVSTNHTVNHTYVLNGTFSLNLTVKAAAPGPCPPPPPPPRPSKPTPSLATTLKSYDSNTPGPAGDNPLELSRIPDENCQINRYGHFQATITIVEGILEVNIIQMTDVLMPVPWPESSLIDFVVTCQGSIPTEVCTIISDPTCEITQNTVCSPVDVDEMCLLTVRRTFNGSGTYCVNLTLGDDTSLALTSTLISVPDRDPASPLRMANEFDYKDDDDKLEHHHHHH
Assay: antigen ELISA, vs hGPN18-2_H2L3
measurement-name: Relative binding activity

binder="hGPN18-2_H2L3 VL S32A (antibody, V domains shown) VH: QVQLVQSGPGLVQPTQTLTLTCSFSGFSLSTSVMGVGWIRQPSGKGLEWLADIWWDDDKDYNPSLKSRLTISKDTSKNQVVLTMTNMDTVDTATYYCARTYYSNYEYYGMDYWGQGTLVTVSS VL: DIVMTQSPDSLAVSLGERATINCRSSQTIILANGNTYLEWYQQKPGQPPKLLIYKVSNRFSGVPDRFSGSGSGTDFTLTISSLQAEDVAVYYCFQGSHVPFTFGSGTKLEIKR" test_value=0.92
binder="hGPN18-2_H2L3 VL Y37A (antibody, V domains shown) VH: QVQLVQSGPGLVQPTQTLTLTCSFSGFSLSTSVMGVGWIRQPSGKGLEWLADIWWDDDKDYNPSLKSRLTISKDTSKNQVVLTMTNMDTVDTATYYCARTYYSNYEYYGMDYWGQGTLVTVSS VL: DIVMTQSPDSLAVSLGERATINCRSSQTIILSNGNTALEWYQQKPGQPPKLLIYKVSNRFSGVPDRFSGSGSGTDFTLTISSLQAEDVAVYYCFQGSHVPFTFGSGTKLEIKR" test_value=0.37
binder="hGPN18-2_H2L3 VL S61A (antibody, V domains shown) VH: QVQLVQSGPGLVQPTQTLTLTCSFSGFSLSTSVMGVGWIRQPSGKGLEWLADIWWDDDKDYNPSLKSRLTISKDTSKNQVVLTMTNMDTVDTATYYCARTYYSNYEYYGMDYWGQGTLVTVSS VL: DIVMTQSPDSLAVSLGERATINCRSSQTIILSNGNTYLEWYQQKPGQPPKLLIYKVSNRFAGVPDRFSGSGSGTDFTLTISSLQAEDVAVYYCFQGSHVPFTFGSGTKLEIKR" test_value=0.94
binder="hGPN18-2_H2L3 VL F60A (antibody, V domains shown) VH: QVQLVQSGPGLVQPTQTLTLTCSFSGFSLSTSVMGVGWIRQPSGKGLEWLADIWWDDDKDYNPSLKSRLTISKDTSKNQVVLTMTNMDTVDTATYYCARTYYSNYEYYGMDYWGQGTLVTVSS VL: DIVMTQSPDSLAVSLGERATINCRSSQTIILSNGNTYLEWYQQKPGQPPKLLIYKVSNRASGVPDRFSGSGSGTDFTLTISSLQAEDVAVYYCFQGSHVPFTFGSGTKLEIKR" test_value=1.12
binder="hGPN18-2_H2L3 (antibody, V domains shown, humanized; also called humanized anti-gpNMB antibody H2L3) VH: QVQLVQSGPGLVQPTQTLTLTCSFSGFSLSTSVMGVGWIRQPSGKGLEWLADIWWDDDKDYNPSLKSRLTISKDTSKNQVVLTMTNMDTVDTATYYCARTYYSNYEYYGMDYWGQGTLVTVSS VL: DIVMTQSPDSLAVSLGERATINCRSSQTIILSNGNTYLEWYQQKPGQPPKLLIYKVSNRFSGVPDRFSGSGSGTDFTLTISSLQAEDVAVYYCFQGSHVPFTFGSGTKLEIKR" test_value=1
